target: GPR119 receptor (Mesocricetus auratus, UniProt A0A1U8CD06); construct: which endogenously express the GPR119 receptor; host or cells: HIT-T15 hamster pancreatic islet cells; assay: cAMP assay in HIT-T15 hamster pancreatic islet cells (functional agonist activity); assay type: cell-based; details: HIT-T15 cells endogenously expressing GPR119; 30 min at 25° C.; intracellular cAMP
Sequence (A0A1U8CD06 1-334): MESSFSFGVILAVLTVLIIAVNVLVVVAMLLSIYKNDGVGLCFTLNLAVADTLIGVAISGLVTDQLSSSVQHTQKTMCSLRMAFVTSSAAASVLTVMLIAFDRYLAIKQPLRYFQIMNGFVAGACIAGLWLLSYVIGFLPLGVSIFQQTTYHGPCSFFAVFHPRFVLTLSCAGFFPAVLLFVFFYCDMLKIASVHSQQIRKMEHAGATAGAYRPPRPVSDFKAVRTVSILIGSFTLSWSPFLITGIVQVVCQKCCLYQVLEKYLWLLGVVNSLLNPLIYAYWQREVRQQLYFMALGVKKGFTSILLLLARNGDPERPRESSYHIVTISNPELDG
# key: entry, value: EC50
measured_quantity: EC50 (µM)

> print(dat)
                                    molecule                            assayed.target  numeric.value
 1  CC(C)(C)OC(=O)N1CCC(n2ncc3c(Oc4ccc5c(c4)CCS5(=O)=O)ncnc32)CC1  GPR119 receptor (Mesocricetus auratus, UniProt A0A1U8CD06)           0.82
 2  CC(C)(C)OC(=O)N1CCC(n2ncc3c(Oc4cccc5ncccc45)ncnc32)CC1  GPR119 receptor (Mesocricetus auratus, UniProt A0A1U8CD06)           0.75
 3  CC(C)(C)OC(=O)N1CCC(n2ncc3c(Nc4ccc(S(C)(=O)=O)cc4)ncnc32)CC1  GPR119 receptor (Mesocricetus auratus, UniProt A0A1U8CD06)            1.5
 4  CC(C)(C)OC(=O)N1CCC(n2ncc3c(Oc4ccc(-n5cncn5)cc4)ncnc32)CC1  GPR119 receptor (Mesocricetus auratus, UniProt A0A1U8CD06)          0.046
 5  Cc1nc(S(C)(=O)=O)ccc1Oc1ncnc2c1cnn2C1CCN(C(=O)OC(C)(C)C)CC1  GPR119 receptor (Mesocricetus auratus, UniProt A0A1U8CD06)          0.096
 6  CC(=O)c1ccc(Oc2ncnc3c2cnn3C2CCN(C(=O)OC(C)(C)C)CC2)cc1C  GPR119 receptor (Mesocricetus auratus, UniProt A0A1U8CD06)           0.31
 7  CS(=O)(=O)c1ccc(Nc2ncnc3c2cnn3C2CCN(Cc3ccccc3)CC2)c(F)c1  GPR119 receptor (Mesocricetus auratus, UniProt A0A1U8CD06)            2.5
 8  CCCCOC(=O)N1CCC(n2ncc3c(Oc4cccnc4C)ncnc32)CC1  GPR119 receptor (Mesocricetus auratus, UniProt A0A1U8CD06)           0.85
 9  CC[C@@H](C)OC(=O)N1CCC(n2ncc3c(Oc4ccc(S(C)(=O)=O)cc4)ncnc32)CC1  GPR119 receptor (Mesocricetus auratus, UniProt A0A1U8CD06)           0.15
10  CC(C)(C)OC(=O)N1CCC(n2ncc3c(Oc4ccc(-n5cnnn5)cc4)ncnc32)CC1  GPR119 receptor (Mesocricetus auratus, UniProt A0A1U8CD06)            1.6
11  CC(C)(OC(=O)N1CCC(n2ncc3c(Oc4ccc(S(C)(=O)=O)cc4)ncnc32)CC1)C(F)(F)F  GPR119 receptor (Mesocricetus auratus, UniProt A0A1U8CD06)           0.05
12  Cc1ncccc1Oc1ncnc2c1cnn2C1CCN(C(=O)OC2CCC2)CC1  GPR119 receptor (Mesocricetus auratus, UniProt A0A1U8CD06)           0.55
13  CC(C)Cc1cc(C(=O)N2CCC(n3ncc4c(Oc5ccc(S(C)(=O)=O)cc5)ncnc43)CC2)no1  GPR119 receptor (Mesocricetus auratus, UniProt A0A1U8CD06)           0.36
14  CC(C)(C)C(=O)N1CCC(n2ncc3c(Oc4cc(F)c(F)cc4F)ncnc32)CC1  GPR119 receptor (Mesocricetus auratus, UniProt A0A1U8CD06)            1.6
15  Cc1nc(S(C)(=O)=O)ccc1Oc1ncnc2c1cnn2C1CCN(C(=O)OC(C)C)CC1  GPR119 receptor (Mesocricetus auratus, UniProt A0A1U8CD06)           0.14
16  CC(C)(C)COC(=O)N1CCC(n2ncc3c(Oc4ccc(S(C)(=O)=O)cc4)ncnc32)CC1  GPR119 receptor (Mesocricetus auratus, UniProt A0A1U8CD06)            0.1
17  CC(=O)Nc1ccc(Oc2ncnc3c2cnn3C2CCN(C(=O)OC(C)C)CC2)cc1  GPR119 receptor (Mesocricetus auratus, UniProt A0A1U8CD06)           0.46
18  CN(C)S(=O)(=O)c1ccc(Oc2ncnc3c2cnn3C2CCN(C(=O)OC(C)(C)C)CC2)cc1  GPR119 receptor (Mesocricetus auratus, UniProt A0A1U8CD06)            0.3
19  Cc1nc(-c2ccc(Oc3ncnc4c3cnn4C3CCN(C(=O)OC(C)(C)C)CC3)cc2)no1  GPR119 receptor (Mesocricetus auratus, UniProt A0A1U8CD06)           0.55
20  CS(=O)(=O)c1ccc(Oc2ncnc3c2cnn3C2CCN(Cc3cccc(C#N)c3)CC2)cc1  GPR119 receptor (Mesocricetus auratus, UniProt A0A1U8CD06)            1.5
21  CC(C)(C)OC(=O)N1CCCC(n2ncc3c(Oc4ccc(S(C)(=O)=O)cc4)ncnc32)C1 (single isomer, unassigned) [Example 88]  GPR119 receptor (Mesocricetus auratus, UniProt A0A1U8CD06)          0.045
22  Cc1nnnn1-c1ccc(Oc2ncnc3c2cnn3C2CCN(C(=O)OC(C)(C)C)CC2)cc1  GPR119 receptor (Mesocricetus auratus, UniProt A0A1U8CD06)           0.24
23  CS(=O)(=O)c1ccc(Oc2ncnc3c2cnn3C2CCN(C(=O)CCc3ccccc3)CC2)cc1  GPR119 receptor (Mesocricetus auratus, UniProt A0A1U8CD06)              1
24  CC(C)(C)OC(=O)N1CCC(n2ncc3c(Oc4ccc5[nH]ccc5c4)ncnc32)CC1  GPR119 receptor (Mesocricetus auratus, UniProt A0A1U8CD06)            1.9
25  Cc1ncccc1Oc1ncnc2c1cnn2C1CCN(C(=O)Oc2ccccc2)CC1  GPR119 receptor (Mesocricetus auratus, UniProt A0A1U8CD06)            1.1
26  CS(=O)(=O)c1ccc(Oc2ncnc3c2cnn3C2CCN(Cc3ccccc3O)CC2)cc1  GPR119 receptor (Mesocricetus auratus, UniProt A0A1U8CD06)           0.36
27  CC(C)(C)OC(=O)N1CCC(n2ncc3c(Oc4ccc(S(C)(=O)=O)cc4)nc(Cl)nc32)CC1  GPR119 receptor (Mesocricetus auratus, UniProt A0A1U8CD06)          0.024
28  Cc1nc(-n2cncn2)ccc1Oc1ncnc2c1cnn2C1CCN(C(=O)OC(C)(C)C)CC1  GPR119 receptor (Mesocricetus auratus, UniProt A0A1U8CD06)           0.36
29  CC(C)(C)OC(=O)N1CCC(n2ncc3c(Oc4c(C#N)ccc(F)c4F)ncnc32)CC1  GPR119 receptor (Mesocricetus auratus, UniProt A0A1U8CD06)          0.048
30  CC(C)CC(=O)N1CCC(n2ncc3c(Oc4ccc(S(C)(=O)=O)cc4)ncnc32)CC1  GPR119 receptor (Mesocricetus auratus, UniProt A0A1U8CD06)           0.33
31  CC(C)(C)OC(=O)N1CCC(n2ncc3c(Oc4ccc(C#N)c(F)c4)ncnc32)CC1  GPR119 receptor (Mesocricetus auratus, UniProt A0A1U8CD06)           0.22
32  CC(C)(C)OC(=O)N1CCC(n2ncc3c(Oc4cc(F)cc(C(F)(F)F)c4)ncnc32)CC1  GPR119 receptor (Mesocricetus auratus, UniProt A0A1U8CD06)           0.49
